Data credit: PubChem BioAssay (NCI)

Tested on: NCI-H522 lung
Experiment: NCI tumour cell line growth inhibition, 48 h; in the data active = GI50 below about 0.43 µM; inactive = the rest
Response enum: 1.0 (active), 0.0 (inactive)

# input Test call, this molecule: O=C(Nc1nc(-c2ccccc2Cl)cs1)c1cc(-c2ccc(Cl)cc2)nc2ccc(Cl)cc12
# output 0.0

# input Test call, this molecule: NC(CS)C(=O)NCCNc1ccc(NCCNC(=O)C(N)CS)c2c1C(=O)c1c(O)ccc(O)c1C2=O (centres undefined)
# output 1.0

# input Test call, this molecule: COc1ccc(/C=C/C(=O)c2ccccc2)cc1OC
# output 0.0

# input Test call, this molecule: CCCCCCn1c2c(c3c(O)cccc31)C(=O)c1ccccc1-2
# output 0.0

* * *

So I've got a bunch of molecules here, and I need their GI50 values.
Tested on: A498 renal
Assay: NCI tumour cell line growth inhibition, 48 h

# input Bench note: what GI50 did O=C1c2ccccc2-c2ccccc2C1(Cl)Cl show?
# output 1.09 µM

# input Bench note: what GI50 did Nc1nc(Cl)nc2c1ncn2C1OC(CO)C(O)C1O (stereo unspecified) show?
# output > 64.4 µM

# input Bench note: what GI50 did COc1cccc(/C=C2\CCc3ccccc3C2=O)c1 show?
# output 12.1 µM

# input Bench note: what GI50 did C1C[S][Ge]2([S]CCS1)[S]CCSCC[S]2 show?
# output > 100 µM

# input Bench note: what GI50 did O=C1Nc2c(ccc(Cl)c2Cl)/C1=C\c1cc(C(F)(F)F)cc(C(F)(F)F)c1 show?
# output 5.59 µM

# input Bench note: what GI50 did COc1cc(/C=C2\CC3C4CCC5=CC(=O)CC[C@]5(C)C4CC[C@]3(C)C2=O)ccc1OCCN1CCCCC1 (stereo partly specified) show?
# output 1.9 µM

* * *

System: SNB-75 CNS
Test: NCI tumour cell line growth inhibition, 48 h; in the data active means GI50 below about 0.43 µM; inactive means the rest
Response enum: TRUE = active, FALSE = inactive

# input Test call, this compound: NC(CS)C(=O)NCCNc1ccc(NCCNC(=O)C(N)CS)c2c1C(=O)c1c(O)ccc(O)c1C2=O (centres undefined)
# output TRUE

# input Test call, this compound: CCOC(=O)Nc1cc(-c2ccc(C)c(NS(C)(=O)=O)c2)nn2c(C)nnc12
# output FALSE

# input Test call, this compound: COc1ccc(Nc2ncccc2C(=O)NCc2cn(Cc3cccc(Oc4ccccc4)c3)nn2)c(OC)c1
# output FALSE

# input Test call, this compound: COc1ccc2c(c1)C(=O)c1c-2c(OCCN2CCCCC2)nc2ccc(OC)cc12
# output FALSE

* * *

Test system: SF-295 CNS
Test: NCI tumour cell line growth inhibition, 48 h
assay.endpoint: TGI (µM)
Could you give me the number in µM? Just the number is fine.

# input Bench note: what TGI did COc1cc(/C=C2\CC3C4CCC5=CC(=O)CC[C@]5(C)C4CC[C@]3(C)C2=O)ccc1OCCN1CCCCC1 (stereo not given in full) show?
# output 4.24

# input Bench note: what TGI did COc1cc(-c2ccc(=O)oc2C#Cc2ccccc2)cc(OC)c1OC show?
# output 35.5

# input Bench note: what TGI did COc1cc(/C=C/c2ccc(S(N)(=O)=O)cc2)cc(OC)c1 show?
# output 55.5

# input Bench note: what TGI did COc1ccc(Oc2nc3c(N)cc(C(F)(F)F)cc3nc2-c2ccccc2)cc1 show?
# output 41.2

# input Bench note: what TGI did COc1cc(OC)c(/C=C/C(=O)c2c(O)cc(OC)c(C3CCN(C)CC3)c2OC)c(OC)c1 show?
# output 2.98

# input Bench note: what TGI did O=C(c1ccccc1)c1c2n(c3c1cc(O)c1ccccc13)CCN2 show?
# output 20.8

# input Bench note: what TGI did O=C1c2c(F)c(F)c(F)c(F)c2SC2=Nc3cccc4cccc(c34)N12 show?
# output 30.9

# input Bench note: what TGI did COc1ccc2c(c1)C(=O)c1c-2c(OCCN2CCCCC2)nc2ccc(OC)cc12 show?
# output 15.2

# input Bench note: what TGI did O=C(Nc1ccc(Cl)cc1)c1cc2ccccc2cc1OP(=O)(O)O show?
# output 31.9

# input Bench note: what TGI did CCOC(=O)Nc1cc(-c2ccc(C)c(NS(C)(=O)=O)c2)nn2c(C)nnc12 show?
# output 56.3

# input Bench note: what TGI did CCN(CC)CC(O)c1cc(-c2ccc(Cl)cc2)nc2cc(Cl)ccc12 (stereo not given) show?
# output 3.37

# input Bench note: what TGI did COc1cccc(/C=C2\CCc3ccccc3C2=O)c1 show?
# output 27.3

# input Bench note: what TGI did C[C@]12CCC(=O)C=C1CC[C@@H]1C2CC[C@@]2(C)C1CC[C@@H]2OC(=O)C12OC1CCC2=O (stereo not given in full) show?
# output 34.7

# input Bench note: what TGI did [Au+].c1c[n-]cn1.c1ccc([PH+](c2ccccc2)c2ccccc2)cc1 show?
# output 26.6

# input Bench note: what TGI did CC(=O)N1CCN(CCCCN2c3ccccc3Sc3cc(N=[N+]=[N-])ccc32)CC1 show?
# output 31.5
